Kindly state IC50 for each of the entries shown.
Experimental target: HCoV-HKU1 main protease (Human coronavirus HKU1)
Sequence (P0C6X2 3335-3637 limits assumed): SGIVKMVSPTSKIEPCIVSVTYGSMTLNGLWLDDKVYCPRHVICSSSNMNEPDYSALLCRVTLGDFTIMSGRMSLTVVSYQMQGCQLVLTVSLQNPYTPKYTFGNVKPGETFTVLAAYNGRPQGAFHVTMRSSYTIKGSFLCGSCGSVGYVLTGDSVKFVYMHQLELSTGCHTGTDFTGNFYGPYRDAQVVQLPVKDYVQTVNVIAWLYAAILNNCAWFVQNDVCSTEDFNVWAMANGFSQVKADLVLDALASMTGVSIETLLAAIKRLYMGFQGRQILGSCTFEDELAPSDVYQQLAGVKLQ
Experiment description: biochemical
State the value with its unit after it.

INPUT: Consider the compound O=C(N[C@H]1CCC(=O)N([C@@H](CC2CC2)C(=O)N[C@@H](C[C@@H]2CCNC2=O)C(=O)C(=O)NC2CC2)C1)OCc1ccccc1 and give its measured IC50.
OUTPUT: 2230 nM

INPUT: Another compound to look at: CC(C)C[C@@H](C(=O)N[C@H](C=O)C[C@@H]1CCNC1=O)N1C[C@@H](NC(=O)OCc2ccccc2)CCC1=O
OUTPUT: 33 nM

INPUT: Another compound to look at: O=C[C@H](C[C@@H]1CCNC1=O)NC(=O)[C@H](CC1CC1)N1C[C@@H](NC(=O)OCc2ccccc2)CCC1=O
OUTPUT: 120 nM

INPUT: Another compound to look at: O=C[C@H](C[C@@H]1CCNC1=O)NC(=O)[C@H](CC1CCCCC1)N1C[C@@H](NC(=O)OCc2ccccc2)CCC1=O
OUTPUT: 1210 nM

INPUT: Another compound to look at: CC(C)C[C@@H](C(=O)N[C@@H](C[C@@H]1CCNC1=O)C(=O)C(=O)NC1CC1)N1C[C@@H](NC(=O)OCc2ccccc2)CC1=O
OUTPUT: 390 nM

###

log10 IC50, HCoV-229E main protease (Human coronavirus 229E): measured values
Note: values are log10 of IC50 expressed in nM.

INPUT: Consider the molecule O=C[C@H](C[C@@H]1CCNC1=O)NC(=O)[C@H](CC1CC1)N1C[C@@H](NC(=O)OCc2ccccc2)CCC1=O [M-1-6] and give its measured log10 IC50.
OUTPUT: 2.26

INPUT: Another molecule to look at: O=C[C@H](C[C@@H]1CCNC1=O)NC(=O)[C@H](CC1CCCCC1)N1C[C@@H](NC(=O)OCc2ccccc2)CCC1=O [M-1-4]
OUTPUT: 2.79

INPUT: Another molecule to look at: CC(C)C[C@@H](C(=O)N[C@H](C=O)C[C@@H]1CCNC1=O)N1C[C@@H](NC(=O)OCc2ccccc2)CCC1=O [M-1-3]
OUTPUT: 1.79

INPUT: Another molecule to look at: O=C(N[C@H]1CCC(=O)N([C@@H](CC2CC2)C(=O)N[C@@H](C[C@@H]2CCNC2=O)C(=O)C(=O)NC2CC2)C1)OCc1ccccc1 [M-2-8]
OUTPUT: 3.75

INPUT: Another molecule to look at: CC(C)C[C@@H](C(=O)N[C@@H](C[C@@H]1CCNC1=O)C(=O)C(=O)NC1CC1)N1C[C@@H](NC(=O)OCc2ccccc2)CC1=O [M-2-3]
OUTPUT: 2.84

###

Experimental target: UniProtKB P0C6X5
Sequence (P0C6X5 2940-3242 limits assumed): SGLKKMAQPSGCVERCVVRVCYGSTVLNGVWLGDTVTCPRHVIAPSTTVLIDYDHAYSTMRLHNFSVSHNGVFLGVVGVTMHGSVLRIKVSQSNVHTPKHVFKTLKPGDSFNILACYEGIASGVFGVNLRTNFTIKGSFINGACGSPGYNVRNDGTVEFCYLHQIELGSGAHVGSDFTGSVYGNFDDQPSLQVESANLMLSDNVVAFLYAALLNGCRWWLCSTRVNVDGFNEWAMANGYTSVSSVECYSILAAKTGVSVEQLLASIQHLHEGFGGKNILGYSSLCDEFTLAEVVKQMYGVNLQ
Experiment description: biochemical
Checkbox rule: IC50 lower than 900 nM = satisfied; IC50 not lower than 900 nM = not satisfied.

INPUT: Is the reported IC50 for O=C[C@H](C[C@@H]1CCNC1=O)NC(=O)[C@H](CC1CCCCC1)N1C[C@@H](NC(=O)OCc2ccccc2)CCC1=O strictly below 900 nM?
OUTPUT: not satisfied

INPUT: Another compound to look at: CC(C)C[C@@H](C(=O)N[C@@H](C[C@@H]1CCNC1=O)C(=O)C(=O)NC1CC1)N1C[C@@H](NC(=O)OCc2ccccc2)CC1=O
OUTPUT: satisfied

INPUT: Another compound to look at: O=C[C@H](C[C@@H]1CCNC1=O)NC(=O)[C@H](CC1CC1)N1C[C@@H](NC(=O)OCc2ccccc2)CCC1=O
OUTPUT: satisfied

INPUT: Another compound to look at: O=C(N[C@H]1CCC(=O)N([C@@H](CC2CC2)C(=O)N[C@@H](C[C@@H]2CCNC2=O)C(=O)C(=O)NC2CC2)C1)OCc1ccccc1
OUTPUT: not satisfied

Hello, the source for this data is paper PMC10330001, in case you need it.
